# target.or.system: Peroxisome proliferator-activated receptor gamma (Homo sapiens, UniProt P37231)
# protocol.description: Antagonist activity at human PPARgamma receptor in CHO-K1 cells assessed as rosiglitazone-induced receptor activation by cell based reporter assay
# Type: functional
Here, each record is paired with measured pIC50 data.
pIC50 is a log-scale quantity: -log10 of the concentration expressed in molar.

Please review the entries below; each comes with its answer.
> print(dat)
                                   molecule  recorded.endpoint  observed.value
1  COC(=O)c1cc2c(c(O)c1C(C)OC(C)=O)C(=O)c1c(O)cc3cc(C)c(Cl)c(OC)c3c1C2=O (centres undefined)              pIC50            5.85
2  COC(=O)c1cc2c(c(O)c1C(C)OC(=O)CO)C(=O)c1c(O)cc3cc(C)c(Cl)c(OC)c3c1C2=O (centres undefined)              pIC50            6.22
3  CCc1c(C(=O)OC)cc2c(c1O)C(=O)c1c(O)cc3cc(C)c(Cl)c(OC)c3c1C2=O              pIC50            5.15

IN: // pIC50 lookup, key: COc1c(Cl)c(C)cc2cc(O)c3c(c12)C(=O)c1cc2c(c(O)c1C3=O)C(C)OC2=O (centres undefined)
OUT: 5.36

###

# target.or.system: Peroxisome proliferator-activated receptor gamma (Homo sapiens, UniProt P37231)
# Sequence (P37231 whole entry): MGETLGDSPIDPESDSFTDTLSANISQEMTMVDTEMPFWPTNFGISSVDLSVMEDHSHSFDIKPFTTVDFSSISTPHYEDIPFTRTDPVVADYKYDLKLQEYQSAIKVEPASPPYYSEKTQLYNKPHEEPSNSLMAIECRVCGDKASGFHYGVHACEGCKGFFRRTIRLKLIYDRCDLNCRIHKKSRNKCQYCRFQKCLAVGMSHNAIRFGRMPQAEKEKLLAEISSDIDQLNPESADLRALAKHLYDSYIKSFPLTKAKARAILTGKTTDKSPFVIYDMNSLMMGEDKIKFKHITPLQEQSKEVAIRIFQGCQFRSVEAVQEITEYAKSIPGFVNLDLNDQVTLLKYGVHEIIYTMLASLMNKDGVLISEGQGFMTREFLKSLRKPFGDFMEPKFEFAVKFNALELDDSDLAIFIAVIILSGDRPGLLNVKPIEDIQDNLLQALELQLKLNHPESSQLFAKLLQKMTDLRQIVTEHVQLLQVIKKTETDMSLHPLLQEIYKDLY
# protocol.description: Displacement of [3H]rosiglitazone from human PPARgamma receptor by scintillation proximity assay
recorded.endpoint: pEC50
Interpret pEC50 as the negative base-10 log of the concentration measured in mol/L.

Some solved entries appear below for comparison.
> print(dat)
                                   compound  recorded.endpoint  observed.value
1  COC(=O)c1cc2c(c(O)c1C(C)OC(C)=O)C(=O)c1c(O)cc3cc(C)c(Cl)c(OC)c3c1C2=O (centres undefined)              pEC50            6.80
2  CCc1c(C(=O)OC)cc2c(c1O)C(=O)c1c(O)cc3cc(C)c(Cl)c(OC)c3c1C2=O              pEC50            6.74
3  COc1c(Cl)c(C)cc2cc(O)c3c(c12)C(=O)c1cc2c(c(O)c1C3=O)C(C)OC2=O (centres undefined)              pEC50            6.59

Note: attention shifts to another entry.
IN: Which measured pEC50 value corresponds to COC(=O)c1cc2c(c(O)c1C(C)OC(=O)CO)C(=O)c1c(O)cc3cc(C)c(Cl)c(OC)c3c1C2=O (centres undefined) ?
OUT: 6.89
